Listed molecules paired with reported TIMS collisional cross section
experiment: TIMS collisional cross section (CCS, N2) of the lipid ion; higher = larger ion cross section; conditions: sample type: HeLa; ionization mode: positive; one isomer drawn
± gives the standard deviation of the averaged measurements.
MEASURE: TIMS collisional cross section

molecule="CCCCCC/C=C\\CCCCCCCC(=O)O[C@H](CO/C=C\\CCCCCCCCCCCCCC)COP(=O)([O-])OCC[N+](C)(C)C [PC P- 16:0@_16:1] (ion (formula + adduct): [C40H78NO7P+H] 1+)" measure="TIMS collisional cross section" measured_result="281.9 Å²"
molecule="CC/C=C\\C/C=C\\C/C=C\\C/C=C\\C/C=C\\C/C=C\\CCC(=O)O[C@H](CO/C=C\\CCCCCCCCCCCCCC)COP(=O)(O)OCCN [PE P- 16:0@_22:6] (ion (formula + adduct): [C43H74NO7P+H] 1+)" measure="TIMS collisional cross section" measured_result="277.3 Å²"
molecule="CCCCCCCCCCCCCCCC(=O)OC[C@@H](COC(=O)CCCCCCCCCCCC)OC(=O)CCCCCCCCCCCCC [TG 13:0_14:0_16:0] (ion (formula + adduct): [C46H88O6+NH4] 1+)" measure="TIMS collisional cross section" measured_result="298.2 Å²"
molecule="CC/C=C\\C/C=C\\C/C=C\\C/C=C\\C/C=C\\C/C=C\\CCC(=O)OC[C@H](COP(=O)(O)OCCN)OC(=O)CCCCCCC/C=C\\CCCCCCCC [PE 22:6_18:1@] (ion (formula + adduct): [C45H76NO8P+H] 1+)" measure="TIMS collisional cross section" measured_result="281.9 Å²"
molecule="CCCCC/C=C\\C/C=C\\C/C=C\\C/C=C\\CCCC(=O)O[C@H](COC(=O)CCCCCCC/C=C\\CCCCCCCC)COP(=O)([O-])OCC[N+](C)(C)C [PC 18:1@_20:4] (ion (formula + adduct): [C46H82NO8P+H] 1+)" measure="TIMS collisional cross section" measured_result="292.7 Å²"
molecule="CCCCCC/C=C\\CCCCCCCC(=O)OC[C@@H](COC(=O)CCCCCCCCCCCCC)OC(=O)CCCCCCCCCCCCC [TG 14:0_14:0_16:1] (ion (formula + adduct): [C47H88O6+NH4] 1+)" measure="TIMS collisional cross section" measured_result="299.3 Å²"
molecule="CC/C=C\\C/C=C\\C/C=C\\C/C=C\\C/C=C\\C/C=C\\CCC(=O)O[C@H](COC(=O)CCCCCCCCCCCCC)COP(=O)([O-])OCC[N+](C)(C)C [PC 14:0_22:6@] (ion (formula + adduct): [C44H76NO8P+H] 1+)" measure="TIMS collisional cross section" measured_result="285.3 Å²"
molecule="CCCCC/C=C\\CCCCCCCC(=O)OC[C@H](COP(=O)([O-])OCC[N+](C)(C)C)OC(=O)CCCCCCC/C=C\\CCCCCC [PC 15:1_16:1@] (ion (formula + adduct): [C39H74NO8P+H] 1+)" measure="TIMS collisional cross section" measured_result="272.8 Å²"
molecule="CCCCCCCCCCCCCCCCC(=O)O[C@@H](CO)COC(=O)CCCCCCCCCCCCCCC [DG 16:0_17:0_0:0] (ion (formula + adduct): [C36H70O5+NH4] 1+)" measure="TIMS collisional cross section" measured_result="262.1 ± 0.42 Å²"
